Test system: cancer cell lines from the cancer cell line encyclopedia (CCLE)
protocolSummary: Cell line profiling (CLiP) proliferation experiment
Type: cell-based
conditionContext: OUMS-23, cell line OUMS-23; read-out: Crossing Point

chemicalStructure: CC(C)[C@@]12C[C@@H](O)[C@@](C)(O1)[C@@H]1CC[C@@H](C)[C@H]1[C@@H]2OC(=O)/C=C/c1ccccc1
measuredTarget: cancer cell lines from the cancer cell line encyclopedia (CCLE)
IC50: 14.8 µM

* * *

System: cancer cell lines from the cancer cell line encyclopedia (CCLE)
protocolSummary: Cell line profiling (CLiP) proliferation experiment
Type: cell-based
conditionContext: Homo sapiens, HCC1395, cell line HCC1395, breast; read-out: Crossing Point
pIC50: −log10 of the molar value.
measureName: pIC50

molecule: CC(C)[C@@]12C[C@@H](O)[C@@](C)(O1)[C@@H]1CC[C@@H](C)[C@H]1[C@@H]2OC(=O)/C=C/c1ccccc1 [Englerin B]
measureName: pIC50
result: < 4.52

* * *

Tested on: cancer cell lines from the cancer cell line encyclopedia (CCLE)
protocolSummary: Cell line profiling (CLiP) proliferation experiment
Assay type: cell-based
conditionContext: Homo sapiens, A549, cell line A549; lung; adenocarcinoma; read-out: Crossing Point
pIC50: −log10 of the molar value.
measureName: pIC50

molecule: CC(C)[C@@]12C[C@@H](O)[C@@](C)(O1)[C@@H]1CC[C@@H](C)[C@H]1[C@@H]2OC(=O)/C=C/c1ccccc1 [Englerin B]
measuredTarget: cancer cell lines from the cancer cell line encyclopedia (CCLE)
measureName: pIC50
recordedNumber: 4.64

* * *

System: cancer cell lines from the cancer cell line encyclopedia (CCLE)
protocolSummary: Cell line profiling (CLiP) proliferation experiment
Type: cell-based
conditionContext: cell line EM-2, haematopoietic_and_lymphoid_tissue; read-out: Crossing Point
pIC50: −log10 of the molar value.
measureName: pIC50

chemicalStructure: CC(C)[C@@]12C[C@@H](O)[C@@](C)(O1)[C@@H]1CC[C@@H](C)[C@H]1[C@@H]2OC(=O)/C=C/c1ccccc1
result: < 4.52

* * *

Test system: cancer cell lines from the cancer cell line encyclopedia (CCLE)
protocolSummary: Cell line profiling (CLiP) proliferation experiment
Format: cell-based
conditionContext: Homo sapiens, Hs-578T, cell line Hs 578T, breast; read-out: Crossing Point
pIC50: −log10 of the molar value.

compound: CC(C)[C@@]12C[C@@H](O)[C@@](C)(O1)[C@@H]1CC[C@@H](C)[C@H]1[C@@H]2OC(=O)/C=C/c1ccccc1 [Englerin B]
pIC50: < 4.52

* * *

Tested on: cancer cell lines from the cancer cell line encyclopedia (CCLE)
protocolSummary: Cell line profiling (CLiP) proliferation experiment
Format: cell-based
conditionContext: cell line HH, haematopoietic_and_lymphoid_tissue; read-out: Crossing Point
Method: Compound profiling experiment and data analysis was performed as previously described. Data was imported and plotted using the Tibco Spotfire DXP application. Lines were categorized as sensitive, intermediate and refractory as follows: Amax<-40 & Inflection Point <2 ~ Sensitive, Amax>-20 & Inflection Point >10 ~ Refractory, all else were called Intermediate. Cancer Cell line HG-U133 Plus 2 data was processed and normalized as described. […]
pIC50: −log10 of the molar value.

compound: CC(C)[C@@]12C[C@@H](O)[C@@](C)(O1)[C@@H]1CC[C@@H](C)[C@H]1[C@@H]2OC(=O)/C=C/c1ccccc1 [Englerin B]
pIC50: 5.00

* * *

System: cancer cell lines from the cancer cell line encyclopedia (CCLE)
protocolSummary: Cell line profiling (CLiP) proliferation experiment
Format: cell-based
conditionContext: Homo sapiens, OV-90, OV-90 cells; read-out: Crossing Point

molecule: CC(C)[C@@]12C[C@@H](O)[C@@](C)(O1)[C@@H]1CC[C@@H](C)[C@H]1[C@@H]2OC(=O)/C=C/c1ccccc1 [Englerin B]
IC50: > 30 µM

* * *

System: cancer cell lines from the cancer cell line encyclopedia (CCLE)
protocolSummary: Cell line profiling (CLiP) proliferation experiment
Format: cell-based
conditionContext: cell line MOR/CPR (lung); read-out: Crossing Point
Procedure: Compound profiling experiment and data analysis was performed as previously described. Data was imported and plotted using the Tibco Spotfire DXP application. Lines were categorized as sensitive, intermediate and refractory as follows: Amax<-40 & Inflection Point <2 ~ Sensitive, Amax>-20 & Inflection Point >10 ~ Refractory, all else were called Intermediate. Cancer Cell line HG-U133 Plus 2 data was processed and normalized as described. […]
pIC50: −log10 of the molar value.
measureName: pIC50

chemicalStructure: CC(C)[C@@]12C[C@@H](O)[C@@](C)(O1)[C@@H]1CC[C@@H](C)[C@H]1[C@@H]2OC(=O)/C=C/c1ccccc1
measuredTarget: cancer cell lines from the cancer cell line encyclopedia (CCLE)
measureName: pIC50
recordedNumber: 4.55

* * *

System: cancer cell lines from the cancer cell line encyclopedia (CCLE)
protocolSummary: Cell line profiling (CLiP) proliferation experiment
Format: cell-based
conditionContext: LP-1 (haematopoietic_and_lymphoid_tissue); read-out: Inflection Point

chemicalStructure: CC(C)[C@@]12C[C@@H](O)[C@@](C)(O1)[C@@H]1CC[C@@H](C)[C@H]1[C@@H]2OC(=O)/C=C/c1ccccc1
measuredTarget: cancer cell lines from the cancer cell line encyclopedia (CCLE)
unitText: µM
EC50: 18.7

* * *

Test system: cancer cell lines from the cancer cell line encyclopedia (CCLE)
protocolSummary: Cell line profiling (CLiP) proliferation experiment
Assay type: cell-based
conditionContext: Homo sapiens, NCI-H1299, cell line NCI-H1299 (lung); read-out: Inflection Point
pEC50: −log10 of the molar value.
measureName: pEC50

chemicalStructure: CC(C)[C@@]12C[C@@H](O)[C@@](C)(O1)[C@@H]1CC[C@@H](C)[C@H]1[C@@H]2OC(=O)/C=C/c1ccccc1
recordedNumber: 4.95

* * *

Tested on: cancer cell lines from the cancer cell line encyclopedia (CCLE)
protocolSummary: Cell line profiling (CLiP) proliferation experiment
Type: cell-based
conditionContext: LP-6 (soft_tissue); read-out: Crossing Point
pIC50: −log10 of the molar value.

compound: CC(C)[C@@]12C[C@@H](O)[C@@](C)(O1)[C@@H]1CC[C@@H](C)[C@H]1[C@@H]2OC(=O)/C=C/c1ccccc1 [Englerin B]
pIC50: < 4.52

* * *

System: cancer cell lines from the cancer cell line encyclopedia (CCLE)
protocolSummary: Cell line profiling (CLiP) proliferation experiment
Format: cell-based
conditionContext: Homo sapiens, COLO-741, COLO 741, skin, NS; read-out: Crossing Point
Experimental: Compound profiling experiment and data analysis was performed as previously described. Data was imported and plotted using the Tibco Spotfire DXP application. Lines were categorized as sensitive, intermediate and refractory as follows: Amax<-40 & Inflection Point <2 ~ Sensitive, Amax>-20 & Inflection Point >10 ~ Refractory, all else were called Intermediate. Cancer Cell line HG-U133 Plus 2 data was processed and normalized as described. […]
pIC50: −log10 of the molar value.

chemicalStructure: CC(C)[C@@]12C[C@@H](O)[C@@](C)(O1)[C@@H]1CC[C@@H](C)[C@H]1[C@@H]2OC(=O)/C=C/c1ccccc1
pIC50: < 4.52

* * *

System: cancer cell lines from the cancer cell line encyclopedia (CCLE)
protocolSummary: Cell line profiling (CLiP) proliferation experiment
Type: cell-based
conditionContext: Homo sapiens, LS180, LS 180 (large_intestine); read-out: Crossing Point
pIC50: −log10 of the molar value.

chemicalStructure: CC(C)[C@@]12C[C@@H](O)[C@@](C)(O1)[C@@H]1CC[C@@H](C)[C@H]1[C@@H]2OC(=O)/C=C/c1ccccc1
pIC50: < 4.52

* * *

Test system: cancer cell lines from the cancer cell line encyclopedia (CCLE)
protocolSummary: Cell line profiling (CLiP) proliferation experiment
Format: cell-based
conditionContext: Homo sapiens, OVCAR-8, cell line OVCAR-8; read-out: Crossing Point
pIC50: −log10 of the molar value.

chemicalStructure: CC(C)[C@@]12C[C@@H](O)[C@@](C)(O1)[C@@H]1CC[C@@H](C)[C@H]1[C@@H]2OC(=O)/C=C/c1ccccc1
pIC50: 4.68

* * *

Tested on: cancer cell lines from the cancer cell line encyclopedia (CCLE)
protocolSummary: Cell line profiling (CLiP) proliferation experiment
Format: cell-based
conditionContext: Homo sapiens, NCI-H1623, cell line NCI-H1623 (lung); read-out: Crossing Point
pIC50: −log10 of the molar value.

compound: CC(C)[C@@]12C[C@@H](O)[C@@](C)(O1)[C@@H]1CC[C@@H](C)[C@H]1[C@@H]2OC(=O)/C=C/c1ccccc1 [Englerin B]
pIC50: < 4.52

* * *

Tested on: cancer cell lines from the cancer cell line encyclopedia (CCLE)
protocolSummary: Cell line profiling (CLiP) proliferation experiment
Format: cell-based
conditionContext: TC-71, TC-71 (bone, NS); read-out: Crossing Point
pIC50: −log10 of the molar value.
measureName: pIC50

chemicalStructure: CC(C)[C@@]12C[C@@H](O)[C@@](C)(O1)[C@@H]1CC[C@@H](C)[C@H]1[C@@H]2OC(=O)/C=C/c1ccccc1
measureName: pIC50
recordedNumber: 4.60

* * *

Tested on: cancer cell lines from the cancer cell line encyclopedia (CCLE)
protocolSummary: Cell line profiling (CLiP) proliferation experiment
Assay type: cell-based
conditionContext: TE-6 (oesophagus, squamous_cell_carcinoma); read-out: Crossing Point

chemicalStructure: CC(C)[C@@]12C[C@@H](O)[C@@](C)(O1)[C@@H]1CC[C@@H](C)[C@H]1[C@@H]2OC(=O)/C=C/c1ccccc1
IC50, µM: 23.8
